Measured Cytotoxicity, listed per entry.
System: B16
Test: The cytotoxic activity was measured against B16 melanoma cells, activity expressed as ED50 of compound/ ED50 of paclitaxel
Assay type: functional, Mus musculus

query.smiles	Cytotoxicity
CC(=O)O[C@H]1C(=O)[C@]2(C)[C@@H](OC(=O)CCl)C[C@H]3OC[C@@]3(OC(C)=O)[C@H]2[C@H](OC(=O)c2ccccc2)[C@]2(O)C[C@H](OC(=O)[C@H](O)[C@@H](NC(=O)c3ccccc3)c3ccccc3)C(C)=C1C2(C)C	0.92
CC(=O)O[C@H]1C(=O)[C@]2(C)[C@@H](OC(=O)CI)C[C@H]3OC[C@@]3(OC(C)=O)[C@H]2[C@H](OC(=O)c2ccccc2)[C@]2(O)C[C@H](OC(=O)[C@H](O)[C@@H](NC(=O)c3ccccc3)c3ccccc3)C(C)=C1C2(C)C	3.7
CC(=O)O[C@H]1C(=O)[C@]2(C)[C@@H](OC(=O)c3ccc(N=[N+]=[N-])cc3)C[C@H]3OC[C@@]3(OC(C)=O)[C@H]2[C@H](OC(=O)c2ccccc2)[C@]2(O)C[C@H](OC(=O)[C@H](O)[C@@H](NC(=O)c3ccccc3)c3ccccc3)C(C)=C1C2(C)C	30
CC(=O)O[C@H]1C(=O)[C@]2(C)[C@@H](OC(=O)c3ccc(N)cc3)C[C@H]3OC[C@@]3(OC(C)=O)[C@H]2[C@H](OC(=O)c2ccccc2)[C@]2(O)C[C@H](OC(=O)[C@H](O)[C@@H](NC(=O)c3ccccc3)c3ccccc3)C(C)=C1C2(C)C	17
